Data credit: PubChem BioAssay (EPA / NIEHS)

- Read-out: MYC, MYC (gene 4609)
- runDescription: LTEA_HepaRG_MYC: Life Technologies and Expression Analysis (LTEA) Assay for MYC using HepaRG (AID 2283518)
- measurementSetup: mRNA level, 48 h; actives raise or lower the signal
- Experimental: LTEA_HepaRG is a cell based, multiplexed-readout assay that uses HepaRG, a human liver cell line, with measurements taken at 48 hours after chemical dosing on a 96-well plate.LTEA_HepaRG_MYC is one of 102 assay component(s) measured in the LTEA HepaRG cell culture assay. It is a marker of Cell proliferation, survival, death.Data from the assay component LTEA_HepaRG_MYC was analyzed into 1 endpoint. […]
The source made the active and inactive calls. Rule for the calls: active = hit-call score of the fitted dose curve at least 0.9, where 1 is the maximum; inactive = score below 0.9.
measurementName: AC50

INSERT INTO results (molsmiles, testresult) VALUES
  ('Cc1ccccc1O', 'inactive'),
  ('N#Cc1ccc(N(CC(N)=O)CC(F)(F)F)cc1C(F)(F)F', 'inactive'),
  ('ClC1=C(Cl)[C@]2(Cl)[C@@H]3[C@@H](Cl)[C@H]4O[C@H]4[C@@H]3C1(Cl)C2(Cl)Cl', 'inactive'),
  ('CC(C)(O)C(=O)Nc1ccc([N+](=O)[O-])c(C(F)(F)F)c1', '0.0308 µM (active)'),
  ('CCNc1nc(NC(C)C)nc(SC)n1', 'inactive'),
  ('CCC(C)(CC)c1cc(NC(=O)c2c(OC)cccc2OC)on1', '25.7 µM (active)');
